Target: Neuraminidase (Influenza A virus, UniProt B4URF0)
Sequence (B4URF0 whole entry): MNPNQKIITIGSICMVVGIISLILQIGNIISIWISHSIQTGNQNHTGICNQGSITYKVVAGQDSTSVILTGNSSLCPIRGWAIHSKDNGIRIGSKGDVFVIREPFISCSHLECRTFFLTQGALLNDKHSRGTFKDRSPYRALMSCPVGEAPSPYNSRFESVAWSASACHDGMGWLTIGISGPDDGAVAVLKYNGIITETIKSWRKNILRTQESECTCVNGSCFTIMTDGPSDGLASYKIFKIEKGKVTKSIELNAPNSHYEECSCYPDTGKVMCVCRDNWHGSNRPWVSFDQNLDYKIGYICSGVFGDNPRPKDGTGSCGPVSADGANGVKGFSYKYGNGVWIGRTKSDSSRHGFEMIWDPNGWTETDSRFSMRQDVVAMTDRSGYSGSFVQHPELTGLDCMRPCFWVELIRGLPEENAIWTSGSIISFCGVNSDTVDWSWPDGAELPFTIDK
Assay: Inhibition of Influenza A virus (A/Yamagata/32/1989(H1N1)) neuraminidase after 30 mins by fluorescence analysis
pIC50: −log10 of the molar value.
value_kind: pIC50

INSERT INTO results (compound, value_kind, recorded_number) VALUES
  ('CCCCCCCC(=O)OC[C@@H](O)[C@@H](OC)[C@@H]1OC(C(=O)O)=C[C@H](NC(=N)N)[C@H]1NC(C)=O [LANINAMIVIR OCTANOATE]', 'pIC50', 6.05);

----------
Experiment: Inhibition of Vibrio cholerae neuraminidase by spectrofluorometric analysis
value_kind: IC50

INSERT INTO measurements (compound, result) VALUES
  ('CO[C@@H]([C@@H]1OC(C(=O)O)=C[C@H](NC(=N)N)[C@H]1NC(C)=O)[C@H](O)CO [LANINAMIVIR]', '> 100 µM');

Origin of measurements: ChEMBL document CHEMBL1629572
